Activity values for the compounds below.
Tested on: KB
Experiment: Cytotoxicity against human KB cells at 10^-6 M after 72 hrs by MTS assay
Assay type: functional

smi	tested system	Activity [%]
COc1ccc(-c2oc3c(OC)c(OC)c(OC)c(O)c3c(=O)c2OC)cc1N	KB	96
COc1ccc(-c2oc3c(O)c(OC)c(OC)c(O)c3c(=O)c2OC)cc1N	KB	34

* * *

Test system: KB
Assay: Cytotoxicity against human KB cells at 10^-6 M after 72 hrs by MTS assay
Type: functional
Threshold rule: Activity greater than or equal to 40% is YES; below that, NO.

smi	tested system	class
COc1ccc(-c2oc3c(OC)c(OC)c(OC)c(O)c3c(=O)c2OC)cc1O	KB	YES
COc1ccc(-c2oc3c(OC)c(OC)c(OC)c(N)c3c(=O)c2OC)cc1N	KB	YES
COc1ccc(-c2oc3c(OC)c(OC)c(OC)c(O)c3c(=O)c2OC)cc1[N+](=O)[O-]	KB	NO
COc1ccc(-c2oc3c(OC)c(OC)c(O)c(O)c3c(=O)c2OC)cc1N	KB	NO
COc1c(OC)c(O)c2c(=O)c(OC)c(-c3ccc(O)cc3)oc2c1OC	KB	NO
